Where do the numbers come from? From patent EP2270002A1.

List of pKi values.
- TARGET SYSTEM: histamine H4 receptor (Homo sapiens, UniProt Q9H3N8)
- Sequence (Q9H3N8 whole entry, species assumed): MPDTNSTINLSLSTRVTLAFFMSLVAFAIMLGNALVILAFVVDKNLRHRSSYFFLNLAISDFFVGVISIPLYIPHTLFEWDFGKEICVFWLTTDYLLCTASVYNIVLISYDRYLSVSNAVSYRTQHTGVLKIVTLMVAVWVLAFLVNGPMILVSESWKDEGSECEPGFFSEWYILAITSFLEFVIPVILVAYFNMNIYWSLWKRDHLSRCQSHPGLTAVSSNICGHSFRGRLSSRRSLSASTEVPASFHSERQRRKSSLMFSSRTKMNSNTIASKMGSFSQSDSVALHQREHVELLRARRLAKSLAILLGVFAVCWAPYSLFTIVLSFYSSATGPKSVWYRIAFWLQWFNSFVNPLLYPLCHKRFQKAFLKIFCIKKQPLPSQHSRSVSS
pKi: −log10 of the molar value.
VALUE KIND: pKi

>>> df
                            compound_smiles  value_kind  numeric_result
0  COc1ccc(-c2ccc3c(N4CCN(C)CC4)nc(N)nc3c2)cc1         pKi            7.26
1    CN1CCN(c2nc(N)nc3c(-c4ccoc4)cccc23)CC1         pKi            6.96
2  CN1CCN(c2nc(N)nc3cc(-c4ccc(C#N)cc4)ccc23)CC1         pKi            7.54
3   CN1CCN(c2nc(N)nc3cc(-c4ccccc4)ccc23)CC1         pKi            7.72
4    CN1CCN(c2nc(N)nc3cc(-c4ccoc4)ccc23)CC1         pKi            8.22
